Please respond with reported IC50 for every item in the list.
Biological target: Fatty-acid amide hydrolase 1 (Mus musculus)
Sequence (O08914 whole entry): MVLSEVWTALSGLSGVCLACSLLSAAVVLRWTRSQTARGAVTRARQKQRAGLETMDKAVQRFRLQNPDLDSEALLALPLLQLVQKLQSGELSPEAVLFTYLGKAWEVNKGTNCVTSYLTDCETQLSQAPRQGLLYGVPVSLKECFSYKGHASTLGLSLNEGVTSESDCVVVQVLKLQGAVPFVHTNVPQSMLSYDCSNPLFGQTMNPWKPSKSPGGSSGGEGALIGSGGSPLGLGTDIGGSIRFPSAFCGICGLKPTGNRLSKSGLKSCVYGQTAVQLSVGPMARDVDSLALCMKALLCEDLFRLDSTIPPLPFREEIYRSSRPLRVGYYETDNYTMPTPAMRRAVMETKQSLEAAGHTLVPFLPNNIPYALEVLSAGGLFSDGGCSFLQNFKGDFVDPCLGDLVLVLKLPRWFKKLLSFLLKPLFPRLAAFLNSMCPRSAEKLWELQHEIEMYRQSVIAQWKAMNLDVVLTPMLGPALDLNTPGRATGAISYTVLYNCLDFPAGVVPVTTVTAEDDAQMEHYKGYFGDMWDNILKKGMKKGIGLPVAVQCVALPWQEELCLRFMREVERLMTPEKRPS
Test: Inhibition of mouse FAAH isolated from brain homogenate using [3H-ethanolamine]AEA as substrate incubated for 20 mins prior to substrate addition measured after 15 mins by beta counting analysis

stdin: Give its IC50 value. Item: C#CCCCCCCCCCOC(=O)c1ccn(-c2cccc(OC(=O)NC3CCCCC3)c2)c1
stdout: > 10000 nM

stdin: Also COc1cccc(-c2c(C(=O)NCCCCCc3ccccc3)cc(C)n2Cc2ccccc2)c1 , if possible.
stdout: > 50000 nM

stdin: Also CCCCNC(=O)Oc1cccc(-c2sc(C)cc2C(N)=O)c1 , if possible.
stdout: > 200 nM

stdin: Also Cc1cc(C(=O)NCCCCCCc2ccccc2)c(-c2cccc(OC(=O)NC3CCCCC3)c2)n1Cc1ccccc1 , if possible.
stdout: > 200 nM

stdin: Also COc1cccc(-c2c(C(=O)NCCCCCCc3ccccc3)cc(C)n2Cc2ccccc2)c1 , if possible.
stdout: > 200 nM

stdin: Also CCCCNC(=O)Oc1cccc(-c2cc(C(N)=O)c(C)o2)c1 , if possible.
stdout: > 200 nM

stdin: Also C#CCCCCCCCCCOC(=O)c1ccn(-c2cccc(OC(=O)NCCCCCCc3ccccc3)c2)c1 , if possible.
stdout: > 200 nM

stdin: Also NC(=O)c1ccn(-c2cccc(OC(=O)NCCOCCOc3ccc(F)cc3)c2)c1 , if possible.
stdout: 31 nM

stdin: Also CCCCNC(=O)Oc1cccc(-n2ccc(C(N)=O)c2)c1 , if possible.
stdout: 240 nM

stdin: Also NC(=O)c1ccn(-c2cccc(OC(=O)NC3CCCCC3)c2)c1 , if possible.
stdout: 120 nM

stdin: Also C#CCCCCCCCCCOC(=O)c1ccn(-c2cccc(OC(=O)NCCCC)c2)c1 , if possible.
stdout: > 70 nM

stdin: Also O=C(NC1CCCCC1)Oc1cccc(-n2ccc(C(=O)OCCCCCCc3ccccc3)c2)c1 , if possible.
stdout: > 50000 nM

This collection of values is drawn from ChEMBL document CHEMBL2163339.
